Assay: Trypanosoma cruzi growth suppression in host cells – NIH3T3 host cells, beta-gal luminescence, confirmation (AID 2044);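 also: intracellular parasites grown in NIH/3T3 mouse fibroblasts as host cells; luminescent beta-galactosidase reporter signal from transgenic T. cruzi replicating inside host cells; inhibitors lower the luminescence signal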
Type: functional, cell-based
Calls of active or inactive are those of the source.
reported.property: EC50

>>> result("CC(C)(C)c1nc(SCC(=O)Nc2nc3c(s2)CCCC3)c2ccccc2n1")
"1.45 µM (active)"
>>> result("CCOc1ccc(Br)cc1C1C(C(=O)OC)=C(N)Oc2cc(N(C)C)ccc21 (stereo not given)")
"0.826 µM (active)"
>>> result("c1cncc(-c2nc(NCCCN3CCOCC3)c3c4c(sc3n2)CCC4)c1")
"2.58 µM (active)"
>>> result("O=C(Cc1ccc([N+](=O)[O-])cc1)Nc1cc(C(F)(F)F)cc(C(F)(F)F)c1")
"2.18 µM (active)"
>>> result("Cc1nc(Nc2ccc(S(=O)(=O)N3CCCCC3C)cc2)c2nnn(Cc3ccccc3)c2n1 (stereo not given)")
"1.92 µM (active)"
>>> result("Fc1ccc(NC(=S)N2CCn3cccc3C2c2cccnc2)cc1 (stereo not given)")
"0.229 µM (active)"
>>> result("CCc1ccc2oc(-c3cc(/N=C/c4cccc(OC)c4O)ccc3O)nc2c1")
"2.45 µM (active)"
>>> result("c1ccc(CN2CCN(Cc3c[nH]c4ccccc34)CC2)cc1")
"0.277 µM (active)"
>>> result("CN(CCOc1ccccc1)CC(O)COCc1ccccc1F (stereo not given)")
"0.526 µM (active)"
>>> result("O=C(COc1ccc(/C=N/NC(=O)c2cc3ccccc3o2)cc1Cl)Nc1ccccc1")
"2 µM (active)"
>>> result("CC(=O)c1c(C)[nH]c(C(=O)Nc2nc(-c3ccc(-c4ccccc4)cc3)cs2)c1C")
"0.876 µM (active)"
>>> result("NC(=S)N/N=C/c1ccc(-c2ccc(SC(F)F)cc2)o1")
"0.895 µM (active)"
>>> result("Cc1ccn2c(=O)nc(SCC(=O)N3N=C(c4cccs4)CC3c3ccc(F)cc3)nc2c1 (stereo not given)")
"1.35 µM (active)"
>>> result("CCC1(CC)C(=O)N(Cc2ccccc2)C(=O)N(Cc2ccccc2)C1=O")
"1.71 µM (active)"
>>> result("CC(C)Nc1nc(NC(C)C)nc(N(C#N)CCOc2ccc(Cl)cc2Cl)n1")
"1.4 µM (active)"

---

Assay: viability of uninfected HEp-2 cells – cell-based, HTS, cytotoxicity control for RSV inhibitor project, dose response (AID 2410)
Assay type: functional
Details: human respiratory syncytial virus
Activity calls are given as the source filed them.
Listing of recorded CC50 by entry.
reported.property: CC50

>>> result("CCN=C(S)NNC(=O)c1csc2c1CCCC2")
"17.9 µM (active)"
>>> result("COc1ccc(/C=C(\\C#N)C(=O)OCC(=O)Nc2ccc(-c3nc4ccc(C)cc4s3)cc2)cc1")
"18.6 µM (active)"
>>> result("CCOC(=O)c1c(C)[nH]c(C(=O)COC(=O)C23CC4CC(CC(Cl)(C4)C2)C3)c1C")
"> 50 µM (active)"
>>> result("CC[C@@]12C(=O)N(c3ccc(C)cc3)C(=O)N1[C@H](c1ccc(Br)cc1)[C@@H]1C(=O)N(C(C)(C)C)C(=O)[C@@H]12")
"> 50 µM (active)"

---

Target: Heat shock protein HSP 90-alpha (Homo sapiens, UniProt P07900)
Assay type: functional, organism-based
Activity calls are given as the source filed them.
Listing of recorded AC50 by entry.
reported.property: AC50

>>> result("CCOC(=O)c1ccc(N2C(=O)CC(N3CCC(O)(c4ccc(Cl)cc4)CC3)C2=O)cc1 (stereo not given)")
"2970 nM (active)"
>>> result("COc1ccc(N2CCN(C(=O)c3ccc(Br)cc3)CC2)c([N+](=O)[O-])c1")
"691 nM (active)"
>>> result("Cc1[nH]n(-c2ccccc2)c(=O)c1C(C[N+](=O)[O-])c1ccc(Br)cc1 (stereo not given)")
"7850 nM (active)"
>>> result("CCCCCCCCCCCCCCCC(O)C[N+](C)(C)CCO (stereo not given)")
"5000 nM (active)"
>>> result("O=[N+]([O-])c1ccc([S+]([O-])Cc2ccccc2)c([N+](=O)[O-])c1 (stereo not given)")
"2170 nM (active)"
